# Experimental system: Anti-CD28 Fab (SEQ ID NOs: 696, 697)
# Sequence (VH, as listed by the source, chain 1 of 2): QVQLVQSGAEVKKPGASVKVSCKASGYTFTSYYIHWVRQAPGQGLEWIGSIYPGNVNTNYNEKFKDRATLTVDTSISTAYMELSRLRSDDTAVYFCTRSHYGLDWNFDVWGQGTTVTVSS
# Sequence (VL, as listed by the source, chain 2 of 2): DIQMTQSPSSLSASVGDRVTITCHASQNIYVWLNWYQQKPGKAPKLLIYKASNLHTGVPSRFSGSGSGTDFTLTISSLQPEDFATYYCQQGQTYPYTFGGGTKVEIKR
# Assay protocol: phage binding ELISA; biotinylated anti-CD28 Fab on neutravidin plate, clonal phage supernatant, anti-M13 HRP;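 further: crude clonal phage supernatants screened after wells were preincubated either with CD28 antigen in blocking buffer or with blocking buffer only, phage added without washing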
Provide the recorded Anti-CD28 Fab (SEQ ID NOs: 696, 697) signal for the entries that follow.
Just the number, please, no unit after it.

Query: Please report the recorded Anti-CD28 Fab (SEQ ID NOs: 696, 697) signal for YCEGHSPEYMYKCL [Phage-589] .
Reply: 2.23

Query: Proceed to YCEGHAWEYMAKCL [Phage-580]
Reply: 2.24

Query: Lookup YCEGHAPMYMWKCL [Phage-586]
Reply: 2.23

Query: Request: YCDGHLPLYLAKCL [Phage-584]
Reply: 2.23

Origin of values: patent US20260242478A1
